Cited source: ChEMBL document CHEMBL1201862

# System: M19-MEL
# test.details: NCI tumour cell line growth inhibition, 48 h
Active and inactive are the calls of the source. No stated cut-off is given here; in the data, active = GI50 up to about 1.1 µM and inactive = higher.
As shown below, each of these molecules has a reported GI50 value.
quantity.measured: GI50

> print(dat)
                                    molecule  quantity.measured               result
 1              N#CCC(=O)Nc1cccc(C(F)(F)F)c1               GI50  > 100 µM (inactive)
 2  C=CCN1C(N)=C(C(N)=O)S/C1=C1/SC(=S)N(c2ccc(C)cc2)C1=O               GI50  > 100 µM (inactive)
 3                     CCCCCCCCCCCCCC(=O)NCO               GI50  > 100 µM (inactive)
 4  CC(=O)NNc1nc(C)c(C(=O)/C=C/c2ccc(/C=C/C(=O)c3sc(NNC(C)=O)nc3C)cc2)s1               GI50  > 100 µM (inactive)
 5  CC(C)C1=CC(=O)C(C)(C2=NC(C)(C)CO2)c2ccccc21 (stereo unspecified)               GI50  > 100 µM (inactive)
 6  O=C1C2=C(c3ccccc31)C(c1ccc([N+](=O)[O-])cc1)NC(S)=N2 (stereo unspecified)               GI50   78.9 µM (inactive)
 7  Clc1ccc2[nH]c(CCSCCc3nc4ccc(Cl)cc4[nH]3)nc2c1               GI50   14.4 µM (inactive)
 8  N#CNc1nc(C(=O)Nc2ccc(Cl)cc2)cc(-c2ccccc2)n1               GI50  > 100 µM (inactive)
 9  CCOC1c2cc(C(C)C)c(O)c(O)c2[C@@]23CCCC(C)(C)C2C1OC3=O (stereo partly specified)               GI50  > 100 µM (inactive)
10  Cn1cc(C(=O)/C(Cl)=C(\Cl)C(=O)O)c2ccccc21               GI50  > 100 µM (inactive)
11  Cc1c(Cl)ccc2c1NC(=O)C2(O)C(C(=O)c1ccccc1)c1ccccc1 (stereo unspecified)               GI50   14.7 µM (inactive)
